target: WDR5 protein (Homo sapiens (Human), UniProt P61964); assay: Surface Plasmon Resonance (SPR) assay; type: binding; details: SPR, τ=1/koff; read-out: Residence Time (t, min)
Criterion: residence time strictly less than 4 min. Met: rule met. Not met: rule not met.

Below are worked cases with known answers.
compound=C[C@@H]1CN(c2ccc(-c3cc(CN4CCOCC4)cnc3F)cc2NC(=O)c2c[nH]c(=O)cc2C(F)(F)F)C[C@H](C)N1C study_target="WDR5 protein (Homo sapiens (Human), UniProt P61964)" assigned_label="rule not met"
compound=CN1CCN(c2ccc(-c3cc(CN4CCN(CC5CC5)CC4)ccc3F)cc2NC(=O)c2c[nH]c(=O)cc2C(F)(F)F)CC1 study_target="WDR5 protein (Homo sapiens (Human), UniProt P61964)" assigned_label="rule met"
compound=CN1CCCN(c2ccc(-c3cc(CN4CCOCC4)ccc3F)cc2NC(=O)c2cn(C)c(=O)cc2C(F)(F)F)CC1 study_target="WDR5 protein (Homo sapiens (Human), UniProt P61964)" assigned_label="rule met"
compound=CN1CCN(c2ccc(-c3cc(CN4CCOCC4)cnc3F)cc2NC(=O)c2c[nH]c(=O)cc2C(F)(F)F)CC1 study_target="WDR5 protein (Homo sapiens (Human), UniProt P61964)" assigned_label="rule met"
compound=CN1CCN(c2ccc(-c3cc(CNC4CCC(F)(F)CC4)ccc3F)cc2NC(=O)c2c[nH]c(=O)cc2C(F)(F)F)CC1 study_target="WDR5 protein (Homo sapiens (Human), UniProt P61964)" assigned_label="rule not met"

*Q* Check if residence time falls below 4 min for `CN1CCN(c2ccc(-c3cc(CNC(C)(C)C)ccc3F)cc2NC(=O)c2c[nH]c(=O)cc2C(F)(F)F)CC1` .
*A* rule not met
